B1: Azoarcus group I ribozyme (parent)
chain: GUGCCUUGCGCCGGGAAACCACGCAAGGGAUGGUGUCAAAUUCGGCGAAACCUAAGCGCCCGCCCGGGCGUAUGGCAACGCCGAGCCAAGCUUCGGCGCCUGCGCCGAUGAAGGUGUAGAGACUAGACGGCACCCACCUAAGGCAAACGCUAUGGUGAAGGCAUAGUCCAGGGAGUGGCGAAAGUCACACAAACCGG

# Variants of: B1
# test-method-notes: reverse-splicing fitness (ratio to wild type); higher = more active; in vitro selection; Mg2+ level not given
Satisfied means recorded reverse-splicing fitness is 0.007 or above; Not satisfied means it is below 0.007.

>>> print(df.to_string())
                        mutation_annotation  qualitative_label
0             A111C A145C C150G C169A U176C          Satisfied
1        C82A A111C A120C A145C C150U C169G          Satisfied
2       A111U A120G A145G C150A C169A U176G      Not satisfied
3              C82G A111C A120G C169U U176A          Satisfied
4              C82U A111C A120C C169G U176C          Satisfied
5        C82A A111U A120U A145U C150G U176G      Not satisfied
6                   A111C A145G C150U C169G          Satisfied
7              C82G A145C C150G C169A U176C      Not satisfied
8  C82G A111G A120G A145U C150U C169A U176C          Satisfied
9       A111U A120C A145C C150U C169A U176G      Not satisfied
